target: UniProt:Q969F8; assay: Human KISS1R binding assay (membrane competition binding); details: 90 min at room temperature; competition with 0.2 nM [125I]-metastin (45-54); Flp-In T-Rex 293 kisspeptin membranes; metal complexes nonradioactive Ga, In, Lu; read-out: hKiSSR Binding Ki (90 min)
Sequence (Q969F8 whole entry): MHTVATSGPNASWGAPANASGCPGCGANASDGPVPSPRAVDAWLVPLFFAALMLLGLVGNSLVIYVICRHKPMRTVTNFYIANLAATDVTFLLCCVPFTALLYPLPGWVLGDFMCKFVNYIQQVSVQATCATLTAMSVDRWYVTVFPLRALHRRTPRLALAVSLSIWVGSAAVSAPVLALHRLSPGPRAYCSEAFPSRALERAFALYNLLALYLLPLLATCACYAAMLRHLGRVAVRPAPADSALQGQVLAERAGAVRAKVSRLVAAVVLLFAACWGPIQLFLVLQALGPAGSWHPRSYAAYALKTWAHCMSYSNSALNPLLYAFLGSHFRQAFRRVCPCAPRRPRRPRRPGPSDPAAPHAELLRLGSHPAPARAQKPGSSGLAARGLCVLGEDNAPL
Square brackets hold non-standard residues; d marks the D form. Peptide text beside a SMILES is read from it. * marks the point of attachment. DOTA = O=C(O)CN1CCN(CC(=O)O)CCN(CC(=O)*)CCN(CC(=O)O)CC1; Gly(N-(3-F-4-Me-benzyl)) = Cc1ccc(CNCC(=O)*)cc1F; Api(1-amidino) = N=C(N)N1CCC(N)(C(=O)O)CC1; Hydrocinnamoyl(4-Me) = Cc1ccc(CCC(=O)*)cc1; Cha = N[C@@H](CC1CCCCC1)C(=O)O; Api = NC1(C(=O)O)CCNCC1; PEG2 = NCCOCCOCCC(=O)O; Ahx = NCCCCCC(=O)O; azaGly = NNC(=O)O
property-label: Ki

compound	study-system	Ki
Cc1ccc(CNCC(=O)N2CCC(NC(=O)[C@H](CC(C)C)NC(=O)NNC(=O)[C@H](Cc3ccccc3)NC(=O)[C@@H](C)NC(=O)[C@@H](C)NC(=O)[C@@H](C)NC(=O)[C@@H](C)NC(=O)[C@@H](C)NC(=O)CCCCCNC(=O)CN3CCN(CC(=O)O)CCN(CC(=O)O)CCN(CC(=O)O)CC3)(C(=O)N[C@@H](Cc3c[nH]c4ccccc34)C(N)=O)CC2)cc1F [Compound 13] ({DOTA-Ahx}-[dA][dA][dA][dA][dA]F[azaGly]L[Api](Gly(N-(3-F-4-Me-benzyl)))W-NH2)	UniProt:Q969F8	10 to 100 nM

Now look at this one.
## Task Find Ki (UniProt:Q969F8) for the entry Cc1ccc(CCC(=O)NCCOCCOCCC(=O)N[C@H](Cc2ccc(O)cc2)C(=O)N[C@@H](CCCCNC(=O)CN2CCN(CC(=O)O)CCN(CC(=O)O)CCN(CC(=O)O)CC2)C(=O)N[C@@H](CC(N)=O)C(=O)N[C@H](C(=O)N[C@@H](CC2CCCCC2)C(=O)NNC(=O)N[C@@H](CC(C)C)C(=O)NC2(C(=O)N[C@@H](Cc3c[nH]c4ccccc34)C(N)=O)CCN(C(=N)N)CC2)[C@@H](C)O)cc1 [Compound 326] ({Hydrocinnamoyl(4-Me)-PEG2}-[dY]K(DOTA)NT[Cha][azaGly]L[Api(1-amidino)]W-NH2)
## Result < 10 nM
